- Test system: small intestine of fasting male Wistar rats (glucose absorption)
- assayDetails: In vitro method for the inhibition of glucose absorption (small intestine rings, D-glucose-14C)
- Parameters: species or system rat (male Wistar)
- cond: Rattus norvegicus, 2 min; 10 mg/ml; 2 minutes at 37° C., pH 7.4, D-glucose-14C 10 mg/ml
reportedProperty: inhibition at 10000 µg/mL

>  <molecule>
C[C@H]1O[C@H](O[C@H]2[C@H](O)[C@@H](O)[C@@H](O[C@H]3[C@H](O)[C@@H](O)[C@H](Oc4ccc(O)cc4)O[C@@H]3CO)O[C@@H]2CO)[C@H](O)[C@@H](O)[C@@H]1N[C@H]1C=C(CO)[C@@H](O)[C@H](O)[C@H]1O [Example 1, 8]

>  <inhibition at 10000 µg/mL>
25 to 50%

$$$$

Could you now look at the following molecule, please?
Provide measured inhibition at 10000 µg/mL value, entry: C[C@H]1O[C@H](O[C@H]2[C@H](O)[C@@H](O)[C@@H](O[C@H]3[C@H](O)[C@@H](O)[C@H](Oc4ccc(C(=O)O)cc4)O[C@@H]3CO)O[C@@H]2CO)[C@H](O)[C@@H](O)[C@@H]1N[C@H]1C=C(CO)[C@@H](O)[C@H](O)[C@H]1O [Example 1, 7]
25 to 50%

Where these numbers come from: patent US4175123A
